meta.source: patent US8952024B2

- System: giant foxtail (Setaria faberii)
- protocol_notes: Test B pre-/postemergence plant response
- Assay type: in vivo
- particulars: Preemergence, 125 g ai/ha; 0 to 100 scale
- Source text: […] Treated plants and controls were maintained in a greenhouse for 13 to 15 days, after which time all treated plants were visually evaluated and compared to controls. […]
quantity_measured: Foxtail, Giant plant response rating

compound | val
Cc1ccc(F)cc1-n1c(-c2ccccc2)ncc(C(=O)C2=C(O)CCCC2=O)c1=O [Compound 44] | 75
Cc1cccc(Cl)c1-n1c(-c2ccccc2)ncc(C(=O)C2=C(O)CCCC2=O)c1=O [Compound 46] | 15
Cc1ccccc1-n1c(-c2cccc(Cl)c2)ncc(C(=O)C2=C(O)CCCC2=O)c1=O [Compound 36] | 65

// switching to the query compound
What does the data say about its Foxtail, Giant plant response rating? Entry: Cc1ccccc1-n1c(-c2ccccc2)ncc(C(=O)C2=C(O)CCCC2=O)c1=O [Compound 12]
70
